Biological target: T1, recombinant human FGF23 (R179Q) (human, UniProt Q9GZV9 25-251)
T1 construct: also called rhFGF23(R179Q); hFGF23(R179Q)
T1 sequence (looked up): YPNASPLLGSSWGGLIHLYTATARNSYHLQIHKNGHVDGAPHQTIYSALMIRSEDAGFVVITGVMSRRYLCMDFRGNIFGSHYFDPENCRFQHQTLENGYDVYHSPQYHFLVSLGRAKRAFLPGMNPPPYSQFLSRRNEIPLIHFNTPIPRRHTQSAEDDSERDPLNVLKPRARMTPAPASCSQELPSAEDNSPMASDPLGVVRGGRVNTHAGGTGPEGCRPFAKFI
Experiment: SPR, antibody captured on hIgG chip, rhFGF23(R179Q) analyte
assayEndpoint: SA (surface activity) (%)
Numeric only. Scale: %

Some binders with known SA (surface activity) results, for comparison:
>  <binder>
UGX182 (antibody, human IgG1, kappa, V domains shown, also called HC:S59D, HC:V101I; S59D/V101I) VH: QVQLVQSGAEVKKPGASVKVSCKASGYTFTNHYMHWVRQAPGQGLEWMGIINPISGSTDNAQKFQGRVTMTRDTSTSTVYMELSSLRSEDTAVYYCARDIIDAFDFWGQGTMVTVSS VL: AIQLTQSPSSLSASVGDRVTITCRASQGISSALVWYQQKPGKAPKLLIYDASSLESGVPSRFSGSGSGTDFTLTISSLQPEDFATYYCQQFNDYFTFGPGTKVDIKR

>  <assayEndpoint>
SA (surface activity)

>  <recordedNumber>
100

$$$$
>  <binder>
UGX204 (antibody, human IgG1, kappa, V domains shown, also called HC:S59E, LC:S52E; S59E/S52E) VH: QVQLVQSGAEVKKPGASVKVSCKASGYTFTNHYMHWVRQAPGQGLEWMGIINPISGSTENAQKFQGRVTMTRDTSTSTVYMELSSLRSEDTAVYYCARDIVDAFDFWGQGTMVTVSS VL: AIQLTQSPSSLSASVGDRVTITCRASQGISSALVWYQQKPGKAPKLLIYDAESLESGVPSRFSGSGSGTDFTLTISSLQPEDFATYYCQQFNDYFTFGPGTKVDIKR

>  <assayEndpoint>
SA (surface activity)

>  <recordedNumber>
90.4

$$$$
>  <binder>
Burosumab (antibody, human IgG1, kappa, V domains shown, Recombinant human IgG1 kappa; also called burosumab-twza; parental burosumab) VH: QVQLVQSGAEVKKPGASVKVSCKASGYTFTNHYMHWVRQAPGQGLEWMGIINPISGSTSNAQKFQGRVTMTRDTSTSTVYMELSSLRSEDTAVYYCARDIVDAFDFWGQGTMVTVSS VL: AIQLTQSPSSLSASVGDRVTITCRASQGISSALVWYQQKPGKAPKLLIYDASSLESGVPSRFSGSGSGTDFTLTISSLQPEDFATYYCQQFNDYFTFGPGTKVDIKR

>  <assayEndpoint>
SA (surface activity)

>  <recordedNumber>
88.8

$$$$
>  <binder>
UGX175 (antibody, human IgG1, kappa, V domains shown, also called HC:A103S; A103S) VH: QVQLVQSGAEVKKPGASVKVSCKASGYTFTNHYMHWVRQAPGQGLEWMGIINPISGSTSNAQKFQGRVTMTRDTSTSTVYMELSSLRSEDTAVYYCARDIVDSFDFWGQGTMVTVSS VL: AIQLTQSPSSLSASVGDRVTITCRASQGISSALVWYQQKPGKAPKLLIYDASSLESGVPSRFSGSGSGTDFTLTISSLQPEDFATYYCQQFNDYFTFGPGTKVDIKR

>  <assayEndpoint>
SA (surface activity)

>  <recordedNumber>
86.8

$$$$
>  <binder>
UGX203 (antibody, human IgG1, kappa, V domains shown, also called HC:S59E, LC:S52D; S59E/S52D) VH: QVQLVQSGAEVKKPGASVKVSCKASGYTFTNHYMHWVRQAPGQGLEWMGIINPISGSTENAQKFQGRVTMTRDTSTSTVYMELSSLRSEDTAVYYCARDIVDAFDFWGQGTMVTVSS VL: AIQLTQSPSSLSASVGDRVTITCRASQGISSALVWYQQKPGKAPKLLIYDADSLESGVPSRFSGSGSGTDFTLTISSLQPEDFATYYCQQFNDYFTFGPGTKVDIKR

>  <assayEndpoint>
SA (surface activity)

>  <recordedNumber>
81.4

$$$$

So what does the record say about SA (surface activity) for UGX202 (antibody, human IgG1, kappa, V domains shown, also called HC:S59E, LC:N92Y; S59E/N92Y) VH: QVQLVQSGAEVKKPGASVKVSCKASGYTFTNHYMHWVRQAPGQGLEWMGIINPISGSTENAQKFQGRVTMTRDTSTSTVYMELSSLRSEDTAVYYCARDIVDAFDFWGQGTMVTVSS VL: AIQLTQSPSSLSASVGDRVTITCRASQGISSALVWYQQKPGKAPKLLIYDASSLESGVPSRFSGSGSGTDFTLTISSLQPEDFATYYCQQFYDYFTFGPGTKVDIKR ?
91.6

So what does the record say about SA (surface activity) for UGX156 (antibody, human IgG1, kappa, V domains shown, also called HC:I54F; I54F) VH: QVQLVQSGAEVKKPGASVKVSCKASGYTFTNHYMHWVRQAPGQGLEWMGIINPFSGSTSNAQKFQGRVTMTRDTSTSTVYMELSSLRSEDTAVYYCARDIVDAFDFWGQGTMVTVSS VL: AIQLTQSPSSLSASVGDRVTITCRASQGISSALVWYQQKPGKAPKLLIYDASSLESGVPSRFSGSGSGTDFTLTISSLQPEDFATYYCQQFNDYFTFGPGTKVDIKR ?
106
